# study_system: human NR1/NR2B (Homo sapiens (Human), UniProt Q05586+Q13224)
# Sequence (Q13224 27-1484, other chains not shown): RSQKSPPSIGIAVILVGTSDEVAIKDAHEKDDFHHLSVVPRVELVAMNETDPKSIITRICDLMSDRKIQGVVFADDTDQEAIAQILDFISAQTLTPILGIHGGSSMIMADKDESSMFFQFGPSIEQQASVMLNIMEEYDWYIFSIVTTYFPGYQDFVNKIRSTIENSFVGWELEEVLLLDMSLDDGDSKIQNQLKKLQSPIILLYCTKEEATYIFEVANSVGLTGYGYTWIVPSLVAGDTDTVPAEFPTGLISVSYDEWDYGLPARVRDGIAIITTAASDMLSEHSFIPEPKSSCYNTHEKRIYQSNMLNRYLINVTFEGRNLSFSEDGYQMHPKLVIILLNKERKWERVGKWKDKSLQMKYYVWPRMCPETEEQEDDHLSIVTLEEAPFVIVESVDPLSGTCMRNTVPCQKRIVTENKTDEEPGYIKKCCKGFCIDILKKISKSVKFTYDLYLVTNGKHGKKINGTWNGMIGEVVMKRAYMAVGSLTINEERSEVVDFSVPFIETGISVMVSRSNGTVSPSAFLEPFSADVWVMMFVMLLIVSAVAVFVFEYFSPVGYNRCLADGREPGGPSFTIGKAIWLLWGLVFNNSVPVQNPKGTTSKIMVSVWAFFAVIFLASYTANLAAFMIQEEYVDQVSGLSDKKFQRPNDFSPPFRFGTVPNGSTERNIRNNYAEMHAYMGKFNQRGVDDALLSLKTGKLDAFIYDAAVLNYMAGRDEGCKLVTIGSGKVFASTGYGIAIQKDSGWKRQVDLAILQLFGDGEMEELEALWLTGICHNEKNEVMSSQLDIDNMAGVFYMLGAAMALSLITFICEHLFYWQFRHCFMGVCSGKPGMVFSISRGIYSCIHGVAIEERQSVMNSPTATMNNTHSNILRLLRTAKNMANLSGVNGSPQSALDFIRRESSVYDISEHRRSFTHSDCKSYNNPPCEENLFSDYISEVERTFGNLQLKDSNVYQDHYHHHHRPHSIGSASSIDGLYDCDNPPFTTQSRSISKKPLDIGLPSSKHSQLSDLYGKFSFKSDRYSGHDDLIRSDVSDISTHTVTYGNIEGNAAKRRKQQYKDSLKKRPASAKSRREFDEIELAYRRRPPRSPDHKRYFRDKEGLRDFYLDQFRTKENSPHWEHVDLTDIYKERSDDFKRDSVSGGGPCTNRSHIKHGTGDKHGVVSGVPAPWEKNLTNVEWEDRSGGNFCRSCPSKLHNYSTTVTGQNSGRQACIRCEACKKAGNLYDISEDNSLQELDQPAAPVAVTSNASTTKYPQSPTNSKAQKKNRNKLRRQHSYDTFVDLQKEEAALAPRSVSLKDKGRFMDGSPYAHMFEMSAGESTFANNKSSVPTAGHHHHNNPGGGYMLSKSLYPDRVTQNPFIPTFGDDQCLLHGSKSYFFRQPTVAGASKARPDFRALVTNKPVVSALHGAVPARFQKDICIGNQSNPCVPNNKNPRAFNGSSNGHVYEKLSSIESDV
# assay_comment: NR2B antagonist activity, Fluo-4 calcium influx in HEK293 cells
# Assay type: cell-based
# measurement_context: Table 2.2
measurement_type: IC50 (nM)
Note: unit nM is implicit; provide only the numeric part.

The cases that follow already have their IC50 on record.
O=C(OCc1ccc(F)cc1)N1CC[C@H](CNc2nccn3cnnc23)C(F)(F)C1 [Compound E1-1.4] :: 20.5
Cc1ccc(COC(=O)N2CC[C@H](CNc3ncc4cn[nH]c4n3)C(F)(F)C2)cc1 [Compound E1-8.2] :: 17
Cc1ccc(COC(=O)N2CC[C@H](CNc3cnccn3)C(F)(F)C2)cc1 [Compound E1-21.2] :: 14.4
Cc1ccc(COC(=O)N2CC[C@H](CNc3cncc4nncn34)C(F)(F)C2)cc1 [Compound E1-2.2] :: 10.4
Cc1ccc(COC(=O)N2CC[C@H](CNc3cnc(C)cn3)C(F)(F)C2)cc1 [Compound E1-21.26] :: 38.7

Value (IC50, human NR1/NR2B (Homo sapiens (Human), UniProt Q05586+Q13224)) for record Cc1ccc(COC(=O)N2CC[C@@H](CNc3nccn4cnnc34)C(F)(F)C2)cc1 [Compound E2-1.2] = 156

Record for Cc1ccc(COC(=O)N2CC[C@H](CNc3nccn4cnnc34)C(F)(F)C2)cc1 [Compound E1-1.2] under target or system human NR1/NR2B (Homo sapiens (Human), UniProt Q05586+Q13224): IC50 reported as 21

Measured IC50 (human NR1/NR2B (Homo sapiens (Human), UniProt Q05586+Q13224)), entry Cc1ccc(COC(=O)N2CC[C@H](CNc3nc4ccccn4n3)C(F)(F)C2)cc1 [Compound E1-9.2] : 48.2

I looked up O=C(OCc1ccc(Cl)cc1)N1CC[C@H](CNc2nccn3cnnc23)C(F)(F)C1 [Compound E1-1.3] and its IC50 for human NR1/NR2B (Homo sapiens (Human), UniProt Q05586+Q13224) was 14.8

---

# study_system: hERG channel (Homo sapiens (Human))
# Sequence (Q12809 whole entry): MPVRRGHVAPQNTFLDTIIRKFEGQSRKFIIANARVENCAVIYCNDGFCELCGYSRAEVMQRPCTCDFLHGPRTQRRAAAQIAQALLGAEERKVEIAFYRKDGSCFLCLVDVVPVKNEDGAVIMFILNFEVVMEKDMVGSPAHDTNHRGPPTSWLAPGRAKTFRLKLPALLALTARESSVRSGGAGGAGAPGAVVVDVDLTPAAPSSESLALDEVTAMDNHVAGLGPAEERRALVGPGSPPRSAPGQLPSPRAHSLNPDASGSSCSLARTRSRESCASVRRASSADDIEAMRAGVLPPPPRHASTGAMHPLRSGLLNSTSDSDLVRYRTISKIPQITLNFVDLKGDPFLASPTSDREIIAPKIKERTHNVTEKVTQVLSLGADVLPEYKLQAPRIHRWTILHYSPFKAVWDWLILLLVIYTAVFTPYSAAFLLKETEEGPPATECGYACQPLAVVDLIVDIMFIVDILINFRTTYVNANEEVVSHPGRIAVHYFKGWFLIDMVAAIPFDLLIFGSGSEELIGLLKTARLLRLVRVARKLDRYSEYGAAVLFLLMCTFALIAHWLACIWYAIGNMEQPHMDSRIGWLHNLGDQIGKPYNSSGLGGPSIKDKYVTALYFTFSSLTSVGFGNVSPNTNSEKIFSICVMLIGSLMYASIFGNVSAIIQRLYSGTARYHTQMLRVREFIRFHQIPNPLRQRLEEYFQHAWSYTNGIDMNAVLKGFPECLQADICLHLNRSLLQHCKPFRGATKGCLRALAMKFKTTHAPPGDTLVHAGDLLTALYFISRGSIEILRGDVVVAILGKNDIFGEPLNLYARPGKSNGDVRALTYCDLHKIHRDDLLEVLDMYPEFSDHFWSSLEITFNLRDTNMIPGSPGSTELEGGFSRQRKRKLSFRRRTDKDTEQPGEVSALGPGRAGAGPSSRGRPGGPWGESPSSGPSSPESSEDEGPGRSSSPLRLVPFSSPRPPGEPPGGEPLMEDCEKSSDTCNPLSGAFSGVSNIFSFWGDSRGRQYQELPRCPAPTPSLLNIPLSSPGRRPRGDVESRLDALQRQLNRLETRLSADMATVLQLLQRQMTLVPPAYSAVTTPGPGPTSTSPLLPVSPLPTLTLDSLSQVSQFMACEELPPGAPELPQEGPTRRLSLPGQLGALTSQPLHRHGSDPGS
# assay_comment: hERG channel inhibition, whole cell patch clamp in HEK293 cells
# measurement_context: HEK293, whole cell patch clamp
measurement_type: IC50 (µM)
A number alone suffices; assume µM.

Cc1ccc(COC(=O)N2CC[C@H](CNc3ncc4cn[nH]c4n3)C(F)(F)C2)cc1 [Compound E1-8.2] :: 6.8

Lab note: next molecule to report on.
Field IC50 (hERG channel (Homo sapiens (Human))), entry Cc1ccc(COC(=O)N2CC[C@H](CNc3nccn4cnnc34)C(F)(F)C2)cc1 [Compound E1-1.2] : 40
